Reported microsomal CLint at 0.5 μM by item:
- Measurement protocol: Determination of the microsomal half-life, human liver microsomes
- Condition details: human, liver microsomes, pH 7.4

>  <Compound>
COc1ccnc2c1C(=O)N(CCc1ccc3ccccc3n1)C2 [compound 528]

>  <microsomal CLint at 0.5 μM>
< 100 µL/min/mg

$$$$
>  <Compound>
CC(C)c1ccc(CCN2Cc3nccc(-c4ccncc4)c3C2=O)nc1 [compound 398]

>  <microsomal CLint at 0.5 μM>
100 to 220 µL/min/mg

$$$$
>  <Compound>
CN1CCN(c2cccc3c2CN(CCc2ccc4ccccc4n2)C3=O)CC1 [Example 144]

>  <microsomal CLint at 0.5 μM>
< 100 µL/min/mg

$$$$
>  <Compound>
CN1CCN(c2cccc3c2C(=O)N(CCc2nc4ccccc4n2C)C3)CC1 [Example 254]

>  <microsomal CLint at 0.5 μM>
< 100 µL/min/mg

$$$$
>  <Compound>
Cn1c(CCN2Cc3nccc(NC4COC4)c3C2=O)nc2ccccc21 [Example 359]

>  <microsomal CLint at 0.5 μM>
< 100 µL/min/mg

$$$$
